# Experimental Protocol: Pharmacokinetic (PK) studies
# Run Conditions: mouse, in vivo
Attribute Measured: Vd (L/kg)

compound="Cc1cc(C(C#N)c2ccc(Cl)cc2)c(Cl)cc1NC(=O)c1cc(I)cc(I)c1O (stereo not shown) [S4105]" val=0.06

====

# Experimental Protocol: Pharmacokinetic (PK) studies
# Run Conditions: mouse, in vivo; IP 20 mg/kg, 8 hours post dose; read-out: plasma concentration 8 hours after IP dose
Attribute Measured: concentration at 8 h

molecule="O=C(Nc1ccc(Oc2ccc(Cl)cc2)c(Cl)c1)c1cc(F)cc(F)c1O [ZNL-01-132]" attribute_measured="concentration at 8 h" val="~2 µM"
